Cited source: patent US12590099B2

Target: Recombinant human HDAC8 (Homo sapiens)
Construct: purchased Enzo Life Sciences BML-SE145-0100
Assay: Human HDAC enzyme inhibitor Fluor-de-Lys assay, HDAC8
Type: biochemical
Settings: recombinant human HDAC8, Fluor-de-Lys assay
measured_quantity: IC50

Solved entries (count: 5):
| molecule | IC50 |
| --- | --- |
| CCC(=O)CCCCC[C@H](NC(=O)C1NC(=O)CC12CN(C(=O)OC(C)(C)C)C2)c1nnc(-c2cc3ccccc3nc2OC)o1 (stereo partly drawn) | > 45 µM |
| CCC(=O)CCCCC[C@H](NC(=O)[C@H]1CC12CCN(CC1CC1)CC2)c1ncc(-c2cc3ccc(C)nc3cc2F)[nH]1 | > 0.9 µM |
| CCC(=O)CCCCC[C@H](NC(=O)C1=NOC2(CCN(CC)CC2)C1)c1ncc(-c2cc3ccc(C)nc3cc2F)o1 | > 0.9 µM |
| CCCC(=O)CCCCC[C@H](NC(=O)[C@H]1CC12CCN(CC1CC1)CC2)c1ncc(-c2cc3ccc(C)nc3cc2OC)[nH]1 | > 0.9 µM |
| CCC(=O)CCCCC[C@H](NC(=O)[C@H]1CC[C@]2(CC1)OC(=O)c1ncccc12)c1nnc(-c2cc3ccccc3nc2OC)o1 | 21.4 µM |

For the molecule CCC(=O)CCCCC[C@H](NC(=O)[C@H]1CC12CCN(C)CC2)c1ncc(-c2cc3ccccc3nc2OC)[nH]1 (single isomer, unassigned) , the measured IC50 on Recombinant human HDAC8 (Homo sapiens) was 3.38 µM

For the molecule CCC(=O)CCCCC[C@H](NC(=O)C1CC12CCN(CC)CC2)c1nc(-c2ccc(F)cc2)[nH]c1-c1cccs1 (stereo partly drawn) , the measured IC50 on Recombinant human HDAC8 (Homo sapiens) was 29.6 µM

For the molecule `CCC(=O)CCCCC[C@H](NC(=O)[C@H]1CC12CN(C)C2)c1ncc(-c2cc3ccccc3nc2OC)[nH]1` , the measured IC50 on Recombinant human HDAC8 (Homo sapiens) was 2.3 µM

For the molecule `CCC(=O)CCCCC[C@H](NC(=O)C1=NOC2(CCN(C(C)=O)CC2)C1)c1ncc(-c2ccccc2)[nH]1` , the measured IC50 on Recombinant human HDAC8 (Homo sapiens) was 6.33 µM

For the molecule CCC(=O)CCCCC[C@H](NC(=O)[C@H]1CC12CCN(C(N)=O)CC2)c1ncc(-c2cc3ccccc3nc2OC)[nH]1 (single isomer, unassigned) , the measured IC50 on Recombinant human HDAC8 (Homo sapiens) was 2.27 µM

For the molecule CCC(=O)CCCCCC(N)(COC)c1ncc(-c2cc3ccc(C)nc3cc2OC)[nH]1 (stereo not drawn) , the measured IC50 on Recombinant human HDAC8 (Homo sapiens) was > 0.9 µM

For the molecule `CCC(=O)CCCCC[C@H](NC(=O)C1=NOC2(CCN(C)CC2)C1)c1ncc(-c2ccccc2)[nH]1` , the measured IC50 on Recombinant human HDAC8 (Homo sapiens) was 6.64 µM

For the molecule `CCC(=O)CCCCC[C@H](NC(=O)[C@H]1CC12CCN(CC1CC1)CC2)c1ncc(-c2cc3ccccc3nc2OC)[nH]1` , the measured IC50 on Recombinant human HDAC8 (Homo sapiens) was 3.13 µM

For the molecule `CCC(=O)CCCCC[C@H](NC(=O)CC1CC2(C1)CN(C)C2)c1ncc(-c2ccccc2)[nH]1` , the measured IC50 on Recombinant human HDAC8 (Homo sapiens) was 13.5 µM

For the molecule `CCC(=O)CCCCC[C@H](NCc1ccncc1)c1ncc(-c2cc3ccc(C)nc3cc2OC)[nH]1` , the measured IC50 on Recombinant human HDAC8 (Homo sapiens) was > 0.9 µM

For the molecule `CCC(=O)CCCCC[C@H](NC(=O)[C@H]1CC12CCN(C)CC2)c1ncc(-c2cnc(OC)nc2)[nH]1` , the measured IC50 on Recombinant human HDAC8 (Homo sapiens) was 5.79 µM

----------
Biological target: HDAC6 (Homo sapiens, UniProt Q9UBN7)
Sequence (Q9UBN7 1-1215): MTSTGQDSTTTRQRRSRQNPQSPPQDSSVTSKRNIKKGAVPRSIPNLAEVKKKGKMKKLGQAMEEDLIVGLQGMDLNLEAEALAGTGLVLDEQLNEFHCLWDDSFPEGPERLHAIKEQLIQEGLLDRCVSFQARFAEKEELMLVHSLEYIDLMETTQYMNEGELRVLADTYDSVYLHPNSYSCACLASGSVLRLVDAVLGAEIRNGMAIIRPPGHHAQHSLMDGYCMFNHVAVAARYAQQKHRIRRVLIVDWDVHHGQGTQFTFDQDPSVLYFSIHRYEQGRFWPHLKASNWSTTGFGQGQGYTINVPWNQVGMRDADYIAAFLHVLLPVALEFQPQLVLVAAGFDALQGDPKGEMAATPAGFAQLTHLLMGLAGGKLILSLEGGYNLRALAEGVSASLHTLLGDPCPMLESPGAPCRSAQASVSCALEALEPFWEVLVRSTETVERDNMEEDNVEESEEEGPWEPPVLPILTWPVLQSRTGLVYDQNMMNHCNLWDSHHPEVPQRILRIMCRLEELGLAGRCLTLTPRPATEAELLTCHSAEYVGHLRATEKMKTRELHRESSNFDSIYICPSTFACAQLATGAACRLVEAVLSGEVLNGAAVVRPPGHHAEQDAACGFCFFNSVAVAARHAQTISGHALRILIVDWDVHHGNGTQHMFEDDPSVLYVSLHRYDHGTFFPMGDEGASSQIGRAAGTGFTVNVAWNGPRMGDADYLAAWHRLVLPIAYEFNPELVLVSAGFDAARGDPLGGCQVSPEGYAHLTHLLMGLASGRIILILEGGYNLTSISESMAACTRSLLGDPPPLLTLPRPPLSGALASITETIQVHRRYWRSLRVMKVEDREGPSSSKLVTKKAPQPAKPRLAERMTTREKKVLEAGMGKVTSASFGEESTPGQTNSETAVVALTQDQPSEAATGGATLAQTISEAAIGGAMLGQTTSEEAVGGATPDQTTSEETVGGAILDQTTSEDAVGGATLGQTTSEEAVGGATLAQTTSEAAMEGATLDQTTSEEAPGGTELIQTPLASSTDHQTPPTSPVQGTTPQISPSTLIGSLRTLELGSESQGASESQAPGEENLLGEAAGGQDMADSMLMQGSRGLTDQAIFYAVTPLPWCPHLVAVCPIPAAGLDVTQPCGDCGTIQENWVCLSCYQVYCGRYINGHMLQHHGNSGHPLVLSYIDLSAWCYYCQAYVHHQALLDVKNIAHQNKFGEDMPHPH
Experiment: Human HDAC enzyme inhibitor Fluor-de-Lys assay, HDAC6
Type: biochemical
measured_quantity: pIC50
Schema: pIC50 number; meaning minus log10 of the concentration expressed in molar units.

Solved entries (count: 3):
| structure_as_smiles | pIC50 |
| --- | --- |
| CCC(=O)CCCCC[C@H](NC(=O)[C@H]1CC12CCN(C)CC2)c1ncc(-c2ccc3ncc(Cl)cc3c2)[nH]1 | 6.21 |
| COc1cc2nc(C)ccc2cc1-c1cnc([C@H](CCCCCC(=O)CC2CCC2)NC(=O)[C@H]2CC23CCN(C)CC3)o1 | 4.44 |
| CCC(=O)CCCCC[C@H](NC(=O)[C@H]1CC12CCN(CC)CC2)c1ncc(-c2ccc3c(=O)n(C4CC4)ccc3c2)o1 | 4.98 |

Moving on to the next compound.
The reported pIC50 of the compound `CCC(=O)CCCCC[C@H](NC(=O)[C@H]1CC12CCN(CC1CC1)CC2)c1ncc(-c2cc3ccc(=O)n(C)c3cc2OC)o1` was 6.67

----------
Molecular target: Recombinant human HDAC8 (Homo sapiens)
Construct: purchased Enzo Life Sciences BML-SE145-0100
Sequence (Q9BY41 1-377): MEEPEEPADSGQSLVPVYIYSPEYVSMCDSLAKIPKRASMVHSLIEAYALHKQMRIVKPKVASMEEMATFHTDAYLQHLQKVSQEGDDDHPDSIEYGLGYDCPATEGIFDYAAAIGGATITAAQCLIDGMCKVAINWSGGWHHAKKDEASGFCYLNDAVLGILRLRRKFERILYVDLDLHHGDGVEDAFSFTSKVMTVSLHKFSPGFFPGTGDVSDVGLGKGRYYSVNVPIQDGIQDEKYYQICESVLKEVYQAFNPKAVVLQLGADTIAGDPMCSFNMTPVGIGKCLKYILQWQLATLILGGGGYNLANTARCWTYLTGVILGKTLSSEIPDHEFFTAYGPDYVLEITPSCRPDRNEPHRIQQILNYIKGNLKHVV
Assay: Human HDAC enzyme inhibitor Fluor-de-Lys assay, HDAC8
Type: biochemical
measured_quantity: pIC50
Schema: pIC50 number; meaning minus log10 of the concentration expressed in molar units.

| compound | pIC50 |
| --- | --- |
| CCN1CCC2(CC1)C[C@@H]2C(=O)N[C@@H](CCCCCC(=O)CC1CC1)c1ncc(-c2cc3ccc(C)nc3cc2OC)[nH]1 [Compound 165] | 4.83 |
| CCC(=O)CCCCC[C@H](NC(=O)[C@H]1CC12CCN(C)CC2)c1ncc(-c2ccc3ncc(Cl)cc3c2)[nH]1 [Compound 140] | 5.39 |
| CCC(=O)CCCCC[C@H](NC(=O)[C@H]1CC12CCN(C)CC2)c1ncc(-c2cnc3cccnc3c2)[nH]1 [Compound 67] | 5.59 |
| CCC(=O)CCCCC[C@H](NC(=O)[C@H]1CC12CCN(C)CC2)c1ncc(-c2ccc3nc(C4CC4)sc3c2)[nH]1 [Compound 146] | 5.11 |

The reported pIC50 of the compound CCC(=O)CCCCC[C@H](NC(=O)[C@H]1CC12CCN(C)CC2)c1ncc(-c2cccnc2OC)[nH]1 [Compound 102] was 5.49

The reported pIC50 of the compound CCC(=O)CCCCC[C@H](NC(=O)[C@H]1CC12CCN(CC)CC2)c1ncc(-c2ccc(-c3nccs3)cc2)o1 [Compound 93] was 4.50

The reported pIC50 of the compound CCC(=O)CCCCC[C@H](NC(=O)CN1CCC2(CC1)CC2)c1ncc(-c2ccc3nn(C)cc3c2)[nH]1 [Compound 155] was 5.09

The reported pIC50 of the compound CCC(=O)CCCCC[C@H](NC(=O)C1CC2(CCN(C)CC2)C1)c1ncc(-c2ccc3nn(C)cc3c2)[nH]1 [Compound 145] was 5.37

The reported pIC50 of the compound CCC(=O)CCCCC[C@H](NC(=O)[C@@H]1CC12CCOCC2)c1ncc(-c2cc3ccccc3nc2OC)[nH]1 [Compound 64] was 5.20
